Some molecules, each annotated with its measured Rat (Shay test) No. of ulcers M ± es.
- System: female rats of "Wistar" strain
- method.notes: Gastro-protective activity, Shay method (pylorus tying) in rats
- Format: in vivo, rat
- assay.conditions: 100 mg/Kg in peanut oil, 18 hours after administration, ulcers in the rumen; peanut oil controls 10.7 ± 2.2
Square brackets hold non-standard residues; d marks the D form. Peptide text beside a SMILES is read from it.
Reply with just the number.

Below, 5 molecules whose answers are already recorded.
{"molecule": "COC(=O)[C@H](Cc1c[nH]cn1)NC(=O)[C@H](Cc1ccccc1)NC(=O)[C@H](Cc1ccccc1)NC(C)=O", "Rat (Shay test) No. of ulcers M ± es": 4.6}
{"molecule": "CNC(=O)[C@H](Cc1c[nH]cn1)NC(=O)[C@H](Cc1ccccc1)NC(=O)[C@H](Cc1ccccc1)NC(C)=O (Ac-Phe-Phe-His-NHMe)", "Rat (Shay test) No. of ulcers M ± es": 5.8}
{"molecule": "CC(=O)N[C@@H](Cc1ccccc1)C(=O)N[C@H](Cc1ccccc1)C(=O)N[C@@H](Cc1c[nH]cn1)C(N)=O (Ac-Phe-[dF]-His-NH2)", "Rat (Shay test) No. of ulcers M ± es": 6.2}
{"molecule": "CC(=O)N[C@@H](Cc1ccccc1)C(=O)N[C@@H](Cc1ccccc1)C(=O)N[C@@H](Cc1c[nH]cn1)C(N)=O (Ac-Phe-Phe-His-NH2)", "Rat (Shay test) No. of ulcers M ± es": 3.1}
{"molecule": "COC(=O)C(Cc1c[nH]cn1)NC(=O)C(Cc1ccccc1)NC(=O)C(Cc1ccccc1)NC(C)=O (mixture of isomers)", "Rat (Shay test) No. of ulcers M ± es": 6.7}

Given COC(=O)[C@H](Cc1c[nH]cn1)NC(=O)[C@@H](Cc1ccccc1)NC(=O)[C@H](Cc1ccccc1)NC(C)=O , state its recorded Rat (Shay test) No. of ulcers M ± es.
5.6

Similarly, CC(=O)N[C@@H](Cc1ccccc1)C(=O)N[C@@H](Cc1ccccc1)C(=O)N[C@@H](Cc1c[nH]cn1)C(=O)O (Ac-Phe-Phe-His-OH) ?
8.4
